System: Du145
assay-summary: Cytotoxicity assay (cell titer-glo and calcein AM), Du145
recorded-conditions: read-out: Cytotoxicity IC50, Du145, CTG; Du145; CTG (cell titer-glo) readout; % error in parentheses
pIC50: −log10 of the molar value.

# molecule, result-comparator, pIC50
records = [
    ("COc1cc2c(c(OC)c1OC)-c1ccc(OC)c(=O)cc1[C@@H](NC(=O)CN(OC)[C@@H]1OC[C@@H](O)[C@@H](O)[C@H]1O)CC2 [Col5, D-riboside]", "<", 5.00),
    ("COc1cc2c(c(OC)c1OC)-c1ccc(OC)c(=O)cc1[C@@H](NC(=O)CN(OC)[C@@H]1O[C@H](CBr)[C@H](O)[C@H](O)[C@H]1O)CC2 [Col42, 6-deoxy-6-bromo-D-galactoside]", "=", 5.35),
    ("COc1cc2c(c(OC)c1OC)-c1ccc(OC)c(=O)cc1[C@@H](NC(=O)CN(OC)[C@@H]1O[C@H](CSC(C)=O)[C@H](O)[C@H](O)[C@H]1O)CC2 [Col68, 6-deoxy-6-thio-acyl-D-galactoside]", "=", 5.38),
    ("COc1cc2c(c(OC)c1OC)-c1ccc(OC)c(=O)cc1[C@@H](NC(=O)CN(OC)[C@@H]1O[C@H](CO)[C@@H](O[C@H]3O[C@H](CO)[C@@H](O[C@H]4O[C@H](CO)[C@@H](O)[C@H](O)[C@H]4O)[C@H](O)[C@H]3O)[C@H](O)[C@H]1O)CC2 [Col13, maltotrioside]", "<", 5.00),
    ("COc1cc2c(c(OC)c1OC)-c1ccc(OC)c(=O)cc1[C@@H](NC(=O)CN(OC)[C@@H]1O[C@H](CF)[C@@H](O)[C@H](O)[C@H]1O)CC2 [Col54, 6-deoxy-6-fluoro-D-glucoside]", "<", 5.00),
    ("COc1cc2c(c(OC)c1OC)-c1ccc(OC)c(=O)cc1[C@@H](NC(C)=O)CC2 [Col]", "<", 5.00),
    ("COc1cc2c(c(OC)c1OC)-c1ccc(OC)c(=O)cc1C(NC(=O)CN(OC)C1OC(COCc3ccccc3)C(OCc3ccccc3)C1OCc1ccccc1)CC2 (stereo not shown) [Col53]", "=", 7.39),
    ("COc1cc2c(c(OC)c1OC)-c1ccc(OC)c(=O)cc1[C@@H](NC(=O)CN(OC)[C@@H]1O[C@H](C(=O)O)[C@H](O)[C@H](O)[C@H]1O)CC2 [Col18, D-Galacturonoside]", "=", 5.95),
    ("COc1cc2c(c(OC)c1OC)-c1ccc(OC)c(=O)cc1C(NC(=O)CN(OC)C1OCC(O)C(O)C1O)CC2 [Col20, D-arabinoside]", "=", 5.62),
    ("COc1cc2c(c(OC)c1OC)-c1ccc(OC)c(=O)cc1[C@@H](NC(=O)CN(OC)[C@@H]1O[C@H](CCl)[C@H](O)[C@H](O)[C@H]1O)CC2 [Col41, 6-deoxy-6-chloro-D-galactoside]", "=", 5.17),
]
